Every entry's value here was drawn from patent US20140219913A1.

Entries and their measured EC50 follow.
Target Desc: T1, Recombinant human B7-1/CD80 Fc chimera (Cat. 140-B1-100, R&D Systems) (human, UniProt P33681 35-242)
T1 construct: extracellular domain; also called B7-1 antigen; Fc part of the bought chimera not given; not described
T1 sequence (looked up): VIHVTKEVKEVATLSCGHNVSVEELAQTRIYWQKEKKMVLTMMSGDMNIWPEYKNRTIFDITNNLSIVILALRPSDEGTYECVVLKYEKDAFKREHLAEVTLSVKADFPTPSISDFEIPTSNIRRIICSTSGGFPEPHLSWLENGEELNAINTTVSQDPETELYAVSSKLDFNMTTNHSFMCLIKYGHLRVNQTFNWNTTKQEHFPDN
Test Method Notes: direct bind ELISA, coated recombinant human B7-1/CD80 Fc chimera
Protocol: Enzyme Linked Immunosorbent Assays (ELISA) to screen for antibodies that bind a desired target antigen were performed as follows. […] One hundred microliters of enhanced TMB solution (Neogen Corp. #308177, K Blue, Lexington, Ky.) was added to each well and incubated for 10 minutes at room temperature. […] Plates were read spectrophotometrically at a wavelength of 450 nm
Return type: number; implicit unit nM.

Sample records with EC50:
binder="RAB021 (other, rDVD-Ig with LEA29Y on the light chain only and a QH linker; also called RAB021H; RAB021L) VH: EVQLVQSGAEVKKPGASVKVSCKASGYTFTKYWLGWVRQAPGQGLEWMGDIYPGYDYTHYNEKFKDRVTLTTDTSTSTAYMELRSLRSDDTAVYYCARSDGSSTYWGQGTLVTVSS VL: AMHVAQPAVVLASSRGIASFVCEYASPGKYTEVRVTVLRQADSQVTEVCAATYMMGNELTFLDDSICTGTSSGNQVNLTIQGLRAMDTGLYICKVELMYPPPYYEGIGNGTQIYVIDPEPCPDSDQEPKSSDKTHTSPDVLMTQTPLSLPVTPGEPASISCTSSQNIVHSNGNTYLEWYLQKPGQSPQLLIYKVSNRFSGVPDRFSGSGSGTDFTLKISRVEAEDVGVYYCFQVSHVPYTFGGGTKVEIKR" quantity_kind=EC50 reported=2.5
binder="RAB020 (other, rDVD-Ig with LEA29Y on the heavy chain only and a QH linker; also called RAB020H; RAB020L) VH: AMHVAQPAVVLASSRGIASFVCEYASPGKYTEVRVTVLRQADSQVTEVCAATYMMGNELTFLDDSICTGTSSGNQVNLTIQGLRAMDTGLYICKVELMYPPPYYEGIGNGTQIYVIDPEPCPDSDQEPKSSDKTHTSPEVQLVQSGAEVKKPGASVKVSCKASGYTFTKYWLGWVRQAPGQGLEWMGDIYPGYDYTHYNEKFKDRVTLTTDTSTSTAYMELRSLRSDDTAVYYCARSDGSSTYWGQGTLVTVSS VL: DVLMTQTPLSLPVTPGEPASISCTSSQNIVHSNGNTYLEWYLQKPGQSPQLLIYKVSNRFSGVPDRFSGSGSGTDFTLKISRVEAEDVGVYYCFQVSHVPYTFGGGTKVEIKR" quantity_kind=EC50 reported=1.2
binder="RAB015 (other, rDVD-Ig with LEA29Y on the light chain only and a long linker; also called RAB015H; RAB015L) VH: EVQLVQSGAEVKKPGASVKVSCKASGYTFTKYWLGWVRQAPGQGLEWMGDIYPGYDYTHYNEKFKDRVTLTTDTSTSTAYMELRSLRSDDTAVYYCARSDGSSTYWGQGTLVTVSS VL: AMHVAQPAVVLASSRGIASFVCEYASPGKYTEVRVTVLRQADSQVTEVCAATYMMGNELTFLDDSICTGTSSGNQVNLTIQGLRAMDTGLYICKVELMYPPPYYEGIGNGTQIYVIDPEPCPDSDTVAAPSVFIFPPDVLMTQTPLSLPVTPGEPASISCTSSQNIVHSNGNTYLEWYLQKPGQSPQLLIYKVSNRFSGVPDRFSGSGSGTDFTLKISRVEAEDVGVYYCFQVSHVPYTFGGGTKVEIKR" quantity_kind=EC50 reported=34.9

// below: EC50 requested for another binder
Ask | Entry RAB014 (other, rDVD-Ig with LEA29Y on the heavy chain only and a long linker; also called RAB014H; RAB014L) VH: AMHVAQPAVVLASSRGIASFVCEYASPGKYTEVRVTVLRQADSQVTEVCAATYMMGNELTFLDDSICTGTSSGNQVNLTIQGLRAMDTGLYICKVELMYPPPYYEGIGNGTQIYVIDPEPCPDSDASTKGPSVFPLAPEVQLVQSGAEVKKPGASVKVSCKASGYTFTKYWLGWVRQAPGQGLEWMGDIYPGYDYTHYNEKFKDRVTLTTDTSTSTAYMELRSLRSDDTAVYYCARSDGSSTYWGQGTLVTVSS VL: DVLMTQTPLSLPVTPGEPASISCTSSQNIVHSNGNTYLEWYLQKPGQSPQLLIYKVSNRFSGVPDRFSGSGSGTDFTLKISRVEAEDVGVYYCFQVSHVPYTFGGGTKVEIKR : reported EC50 = ?
Reply | 1.5
